Biological target: T1, human IL-23 (human, UniProt Q9NPF7 20-189; P29460 23-328)
T1 construct: Heterodimer of p19 and p40; also called hIL-23
T1 sequence 1: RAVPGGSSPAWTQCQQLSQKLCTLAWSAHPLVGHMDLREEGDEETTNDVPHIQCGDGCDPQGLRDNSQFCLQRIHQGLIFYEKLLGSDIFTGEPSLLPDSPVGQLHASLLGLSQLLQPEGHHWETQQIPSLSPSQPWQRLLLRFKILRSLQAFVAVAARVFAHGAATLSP
T1 sequence 2: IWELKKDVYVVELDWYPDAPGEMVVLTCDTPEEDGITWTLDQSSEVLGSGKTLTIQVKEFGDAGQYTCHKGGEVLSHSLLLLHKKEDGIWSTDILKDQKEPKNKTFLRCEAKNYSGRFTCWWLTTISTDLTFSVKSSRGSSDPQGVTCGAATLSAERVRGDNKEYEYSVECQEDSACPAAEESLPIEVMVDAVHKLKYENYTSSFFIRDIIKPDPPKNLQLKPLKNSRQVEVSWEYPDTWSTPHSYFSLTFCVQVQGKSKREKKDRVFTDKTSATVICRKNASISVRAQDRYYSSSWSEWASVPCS
Assay: inhibition ELISA: antibody pre-incubated with a constant concentration of human IL-23, IL-23 bound to plate-coated human IL23R Fc chimera detected with biotinylated anti-human IL12, OD450
Attribute Measured: IC50 (read off the curve)

{"columns": ["Binder", "Measured Value"],
 "data": [
  ["A3M0 (antibody, human IgG1, kappa, V domains shown, human gamma1 and kappa constant regions; Tested as HEK supernatant and as purified antibody; also called A3M0 purified) VH: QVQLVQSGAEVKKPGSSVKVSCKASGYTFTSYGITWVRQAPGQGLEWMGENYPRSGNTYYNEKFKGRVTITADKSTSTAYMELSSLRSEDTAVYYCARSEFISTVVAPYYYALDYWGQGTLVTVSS VL: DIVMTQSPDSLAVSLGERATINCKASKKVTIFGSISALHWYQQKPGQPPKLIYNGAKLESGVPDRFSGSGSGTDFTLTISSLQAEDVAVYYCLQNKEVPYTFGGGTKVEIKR", "~0.7 nM"]
]}
